Each item that follows carries a reported pIC50.
target: IL-1RtI (Homo sapiens, UniProt P14778)
Construct: made in house; host or cells: recombinant host cells (one form soluble from baculovirus transformed host cells; another PIG-tailed and cleaved from the cell surface)
Sequence (P14778 18-336): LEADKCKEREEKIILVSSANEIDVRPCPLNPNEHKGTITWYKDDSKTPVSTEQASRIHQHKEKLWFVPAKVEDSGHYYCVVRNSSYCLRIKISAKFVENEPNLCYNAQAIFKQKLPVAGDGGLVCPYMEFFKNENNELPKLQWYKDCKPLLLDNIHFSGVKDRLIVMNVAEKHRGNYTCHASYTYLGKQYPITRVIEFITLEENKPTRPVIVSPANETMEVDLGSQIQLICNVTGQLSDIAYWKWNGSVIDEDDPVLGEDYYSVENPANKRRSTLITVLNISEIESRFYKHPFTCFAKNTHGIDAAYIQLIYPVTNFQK
experimentSummary: Inhibition of 125I-IL-1α binding to IL-1RtI (Example 3)
statedConditions: inhibition of 125I-IL-1α binding to IL-1RtI; soluble peptide unless marked *
pIC50: −log10 of the molar value. Where a SMILES comes first, the peptide text is derived from it. [ ]: non-standard residue; d: D form. Bpa = N[C@@H](Cc1ccc(C(=O)c2ccccc2)cc1)C(=O)O; Aze = O=C(O)[C@@H]1CCN1
testReadout: pIC50

molecule	observedMeasurement
C[C@@H](O)[C@H](NC(=O)[C@H](Cc1c[nH]c2ccccc12)NC(=O)[C@H](CCC(=O)O)NC(=O)[C@@H](N)Cc1ccccc1)C(=O)N1CCC[C@H]1C(=O)NCC(=O)N[C@@H](Cc1ccc(C(=O)c2ccccc2)cc1)C(=O)N[C@@H](Cc1ccc(O)cc1)C(=O)N[C@@H](CCC(N)=O)C(=O)N1CC[C@H]1C(=O)N[C@@H](Cc1ccc(O)cc1)C(N)=O [FEWTPG--Bpa--YQJY--NH2] (H-FEWTPG[Bpa]YQ[Aze]Y-NH2)	≥ 6.30
C[C@H](NC(=O)[C@@H]1CCN1C(=O)[C@H](CCC(N)=O)NC(=O)[C@H](Cc1c[nH]c2ccccc12)NC(=O)[C@H](Cc1ccc(O)cc1)NC(=O)CNC(=O)[C@@H]1CCCN1C(=O)[C@@H](NC(=O)[C@H](Cc1c[nH]c2ccccc12)NC(=O)[C@H](CCC(=O)O)NC(=O)[C@@H](N)Cc1ccccc1)[C@@H](C)O)C(N)=O [FEWTPGYWQJA--NH2] (H-FEWTPGYWQ[Aze]A-NH2)	≥ 4.00

---

target: IL-1RtI (Homo sapiens)
Construct: made in house; host or cells: recombinant host cells (one form soluble from baculovirus transformed host cells; another PIG-tailed and cleaved from the cell surface)
experimentSummary: Inhibition of 125I-IL-1α binding to IL-1RtI (Example 3)
statedConditions: inhibition of 125I-IL-1α binding to IL-1RtI; soluble peptide unless marked *
Where a SMILES comes first, the peptide text is derived from it. [ ]: non-standard residue; d: D form. Bpa = N[C@@H](Cc1ccc(C(=O)c2ccccc2)cc1)C(=O)O; 1Nal = N[C@@H](Cc1cccc2ccccc12)C(=O)O; Aze = O=C(O)[C@@H]1CCN1
Each item that follows carries a reported IC50.

compound	IC50
C[C@@H](O)[C@H](NC(=O)[C@H](Cc1c[nH]c2ccccc12)NC(=O)[C@H](CCC(=O)O)NC(=O)[C@@H](N)Cc1ccc(O)cc1)C(=O)N1CCC[C@H]1C(=O)NCC(=O)N[C@@H](Cc1ccc(O)cc1)C(=O)N[C@@H](Cc1ccc(O)cc1)C(=O)N[C@@H](CCC(N)=O)C(=O)N1CC[C@H]1C(=O)N[C@@H](Cc1ccc(O)cc1)C(N)=O [YEWTPGYYQJY--NH2] (H-YEWTPGYYQ[Aze]Y-NH2)	≤ 500 nM
CC(=O)N[C@@H](Cc1ccccc1)C(=O)N[C@@H](CCC(=O)O)C(=O)N[C@@H](Cc1c[nH]c2ccccc12)C(=O)N[C@H](C(=O)N1CCC[C@H]1C(=O)NCC(=O)N[C@@H](Cc1ccc(O)cc1)C(=O)N[C@@H](Cc1ccc(O)cc1)C(=O)N[C@@H](CCC(N)=O)C(=O)N1CC[C@H]1C(=O)N[C@@H](Cc1ccc(C(=O)c2ccccc2)cc1)C(N)=O)[C@@H](C)O [AcFEWTPGYYQJ--Bpa--NH2] (Ac-FEWTPGYYQ[Aze][Bpa]-NH2)	≤ 100000 nM
C[C@@H](O)[C@H](NC(=O)[C@H](Cc1c[nH]c2ccccc12)NC(=O)[C@H](CCC(=O)O)NC(=O)[C@@H](N)Cc1ccccc1)C(=O)N1CCC[C@H]1C(=O)NCC(=O)N[C@@H](Cc1ccc(O)cc1)C(=O)N[C@@H](Cc1c[nH]c2ccccc12)C(=O)N[C@@H](CCC(N)=O)C(=O)N1CC[C@H]1C(=O)N[C@@H](Cc1ccc(O)cc1)C(N)=O [FEWTPGYWQJY--NH2] (H-FEWTPGYWQ[Aze]Y-NH2)	≤ 500 nM
CC(C)[C@H](NC(=O)[C@@H](NC(=O)[C@H](Cc1c[nH]c2ccccc12)NC(=O)[C@H](CCC(=O)O)NC(=O)[C@@H](N)Cc1ccccc1)[C@@H](C)O)C(=O)N1CCC[C@H]1C(=O)N[C@@H](Cc1ccc(O)cc1)C(=O)N[C@@H](Cc1c[nH]c2ccccc12)C(=O)N[C@@H](CCC(N)=O)C(=O)N1CC[C@H]1C(=O)N[C@@H](Cc1ccc(O)cc1)C(N)=O [FEWTVPYWQJY--NH2] (H-FEWTVPYWQ[Aze]Y-NH2)	≤ 100000 nM
CC(=O)N[C@@H](Cc1ccc(C(=O)c2ccccc2)cc1)C(=O)N[C@@H](CCC(=O)O)C(=O)N[C@@H](Cc1c[nH]c2ccccc12)C(=O)N[C@H](C(=O)N1CCC[C@H]1C(=O)NCC(=O)N[C@@H](Cc1ccc(O)cc1)C(=O)N[C@@H](Cc1ccc(O)cc1)C(=O)N[C@@H](CCC(N)=O)C(=O)N1CC[C@H]1C(=O)N[C@@H](Cc1ccc(O)cc1)C(N)=O)[C@@H](C)O [AcBpa--EWTPGYYQJY--NH2] (Ac-[Bpa]EWTPGYYQ[Aze]Y-NH2)	≤ 500 nM
CC(C)[C@@H](NC(=O)[C@@H]1CCCN1C(=O)[C@@H](NC(=O)[C@H](Cc1c[nH]c2ccccc12)NC(=O)[C@H](CCC(=O)O)NC(=O)[C@@H](N)Cc1ccccc1)[C@@H](C)O)C(=O)N[C@@H](Cc1ccc(O)cc1)C(=O)N[C@@H](Cc1c[nH]c2ccccc12)C(=O)N[C@@H](CCC(N)=O)C(=O)N1CC[C@H]1C(=O)N[C@@H](Cc1ccc(O)cc1)C(N)=O [FEWTPvYWQJY--NH2] (H-FEWTP[dV]YWQ[Aze]Y-NH2)	≤ 500 nM
C[C@H](NC(=O)[C@H](Cc1c[nH]c2ccccc12)NC(=O)[C@H](CCC(=O)O)NC(=O)[C@@H](N)Cc1ccccc1)C(=O)N1CCC[C@H]1C(=O)NCC(=O)N[C@@H](Cc1ccc(O)cc1)C(=O)N[C@@H](Cc1c[nH]c2ccccc12)C(=O)N[C@@H](CCC(N)=O)C(=O)N1CC[C@H]1C(=O)N[C@@H](Cc1ccc(O)cc1)C(N)=O [FEWAPGYWQJY--NH2] (H-FEWAPGYWQ[Aze]Y-NH2)	≤ 500 nM
CC(=O)N[C@@H](Cc1ccccc1)C(=O)N[C@@H](CCC(=O)O)C(=O)N[C@@H](Cc1c[nH]c2ccccc12)C(=O)N[C@H](C(=O)N1CCC[C@H]1C(=O)NCC(=O)N[C@@H](Cc1c[nH]c2ccccc12)C(=O)N[C@@H](Cc1ccc(O)cc1)C(=O)N[C@@H](CCC(N)=O)C(=O)N1CC[C@H]1C(=O)N[C@@H](Cc1ccc(O)cc1)C(N)=O)[C@@H](C)O [AcFEWTPGWYQJY--NH2] (Ac-FEWTPGWYQ[Aze]Y-NH2)	≤ 500 nM
C[C@@H](O)[C@H](NC(=O)[C@H](Cc1c[nH]c2ccccc12)NC(=O)[C@H](CCC(=O)O)NC(=O)[C@@H](N)Cc1cccc2ccccc12)C(=O)N1CCC[C@H]1C(=O)NCC(=O)N[C@@H](Cc1ccc(O)cc1)C(=O)N[C@@H](Cc1ccc(O)cc1)C(=O)N[C@@H](CCC(N)=O)C(=O)N1CC[C@H]1C(=O)N[C@@H](Cc1ccc(O)cc1)C(N)=O [1Nap--EWTPGYYQJY--NH2] (H-[1Nal]EWTPGYYQ[Aze]Y-NH2)	≤ 500 nM
C[C@@H](O)[C@H](NC(=O)[C@H](Cc1c[nH]c2ccccc12)NC(=O)[C@H](CCC(=O)O)NC(=O)[C@@H](N)Cc1ccccc1)C(=O)N1CCC[C@@H]1C(=O)NCC(=O)N[C@@H](Cc1ccc(O)cc1)C(=O)N[C@@H](Cc1c[nH]c2ccccc12)C(=O)N[C@@H](CCC(N)=O)C(=O)N1CC[C@H]1C(=O)N[C@@H](Cc1ccc(O)cc1)C(N)=O [FEWTpGYWQJY--NH2] (H-FEWT[dP]GYWQ[Aze]Y-NH2)	≤ 500 nM
